# Procedure summary: Apparent permeability across human Caco-2 cells
# Type: ADME, cell-based
Recorded metric: Papp (×10⁻⁶ cm/s)
Write the answer as a number in ×10⁻⁶ cm/s, unit excluded.

Incoming: What value of measured Papp is listed for "Oc1ccc(-c2cnc(-c3cccc(O)c3)o2)cc1" ?
Outgoing: 7.9

----------
# Assayed target: 17-beta-hydroxysteroid dehydrogenase type 2 (Homo sapiens)
# Sequence (P37059 whole entry): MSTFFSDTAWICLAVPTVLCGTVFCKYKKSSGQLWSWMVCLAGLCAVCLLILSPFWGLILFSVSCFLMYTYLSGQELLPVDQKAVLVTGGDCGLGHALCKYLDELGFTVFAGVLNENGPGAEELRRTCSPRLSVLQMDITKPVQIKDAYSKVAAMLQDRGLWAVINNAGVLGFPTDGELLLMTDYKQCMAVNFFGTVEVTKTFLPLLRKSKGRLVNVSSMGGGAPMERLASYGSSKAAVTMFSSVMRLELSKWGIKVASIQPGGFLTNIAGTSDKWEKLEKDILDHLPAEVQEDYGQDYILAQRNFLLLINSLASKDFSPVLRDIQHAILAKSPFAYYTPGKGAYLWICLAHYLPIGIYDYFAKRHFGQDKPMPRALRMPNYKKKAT
Recorded metric: IC50 (µM)

input_smiles=Oc1ccc(-c2cc(-c3cccc(O)c3)on2)cc1 readout_number=0.27

I = Oc1ccc(-c2coc(-c3cccc(O)c3)n2)cc1
II = Oc1ccc(-c2cnc(-c3cccc(O)c3)o2)cc1
Incoming: Which record would sort first by descending IC50, I or II ? Output the label that corresponds to your choice.
Outgoing: II

----------
# Assayed target: Estrogen receptor beta (Homo sapiens) (UniProt Q92731)
# Sequence (Q92731 whole entry): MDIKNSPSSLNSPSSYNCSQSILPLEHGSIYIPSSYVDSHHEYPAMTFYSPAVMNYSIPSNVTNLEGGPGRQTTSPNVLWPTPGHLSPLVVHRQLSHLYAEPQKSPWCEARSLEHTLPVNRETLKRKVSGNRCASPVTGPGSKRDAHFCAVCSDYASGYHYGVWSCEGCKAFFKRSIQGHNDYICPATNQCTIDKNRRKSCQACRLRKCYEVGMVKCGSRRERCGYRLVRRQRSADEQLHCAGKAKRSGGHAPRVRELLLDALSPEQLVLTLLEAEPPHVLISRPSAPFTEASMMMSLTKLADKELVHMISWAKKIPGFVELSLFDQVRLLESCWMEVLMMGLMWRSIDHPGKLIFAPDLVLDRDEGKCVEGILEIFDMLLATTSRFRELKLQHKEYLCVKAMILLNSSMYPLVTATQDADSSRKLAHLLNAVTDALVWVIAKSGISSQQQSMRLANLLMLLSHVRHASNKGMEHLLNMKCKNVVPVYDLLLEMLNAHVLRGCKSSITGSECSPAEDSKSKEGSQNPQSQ
# Procedure summary: Displacement of [2,4,6,7-3H]17beta-estradiol from human recombinant ERbeta receptor relative to 17-beta-estradiol
Recorded metric: RBA (%)

input_smiles=Oc1ccc(-c2coc(-c3cccc(O)c3)n2)cc1 recorded_metric=RBA display_unit=% readout_number=0.01

a = Oc1ccc(-c2cn(-c3cccc(O)c3)nn2)cc1
b = Oc1ccc(-c2cnc(-c3cccc(O)c3)o2)cc1
Incoming: I'm curious, which of these has a smaller RBA number: a or b ? Identify your selection by its label.
Outgoing: a
(a: 0.01%, b: 0.5%)

----------
# Assayed target: 17-beta-hydroxysteroid dehydrogenase type 1 (Homo sapiens, UniProt P14061)
# Sequence (P14061 whole entry): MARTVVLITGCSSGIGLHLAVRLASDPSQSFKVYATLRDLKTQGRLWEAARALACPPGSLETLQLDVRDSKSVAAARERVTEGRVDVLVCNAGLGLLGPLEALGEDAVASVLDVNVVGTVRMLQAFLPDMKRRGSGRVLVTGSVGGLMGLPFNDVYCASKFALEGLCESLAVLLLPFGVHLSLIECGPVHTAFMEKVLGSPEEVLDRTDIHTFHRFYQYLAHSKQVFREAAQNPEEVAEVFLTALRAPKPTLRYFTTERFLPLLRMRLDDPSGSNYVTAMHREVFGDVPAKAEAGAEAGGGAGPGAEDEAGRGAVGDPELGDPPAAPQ
# Procedure summary: Inhibition of human placental 17beta-HSD1 using estrone substrate
Recorded metric: IC50 (nM)

Reference set, count: 2
input_smiles=Oc1ccc(-c2coc(-c3cccc(O)c3)n2)cc1 display_unit=nM readout_number=1850
input_smiles=Oc1ccc(-n2cc(-c3cccc(O)c3)nn2)cc1 display_unit=nM readout_number=1320

P = Oc1ccc(-c2cc(-c3cccc(O)c3)on2)cc1
Q = Oc1ccc(-c2cn(-c3cccc(O)c3)nn2)cc1
R = Oc1ccc(-c2cnc(-c3cccc(O)c3)o2)cc1
Incoming: Put the entries in order of IC50, starting with the largest number. # answer = labels listed in requested order
Outgoing: P, Q, R

----------
# Species: Homo sapiens
# Procedure summary: Selectivity ratio of IC50 for human 17beta-HSD2 to IC50 for human 17beta-HSD1
Recorded metric: Ratio IC50

input_smiles=Oc1ccc(-c2cn(-c3cccc(O)c3)nn2)cc1 recorded_metric="Ratio IC50" readout_number=9

A = Oc1ccc(-c2cc(-c3cccc(O)c3)on2)cc1
B = Oc1ccc(-n2cc(-c3cccc(O)c3)nn2)cc1
Incoming: Sorting ascending by Ratio IC50, which comes first: A or B ? Mark your answer with the label of the selected entry.
Outgoing: A

P = Oc1ccc(-c2cnc(-c3cccc(O)c3)o2)cc1
Q = Oc1ccc(-c2coc(-c3cccc(O)c3)n2)cc1
Incoming: Of P and Q , whose reported Ratio IC50 is numerically smaller? Selection: enter the item's label.
Outgoing: Q
(Q: 0.1, P: 56)
